test system: HepG2; assay: GSK_TCMDC: Percent inhibition of human HepG2 cell line. Test compounds present at 10uM.; format: functional
Each entry below lists one item and its recorded Inhibition value.
API: value field is a number in %; no unit string.

Some solved cases for reference:
1) CO/C(=C\C=C\c1cc2cc(Cl)c(Cl)cc2[nH]1)C(=O)NCCCN1CCN(c2cccc(OCC(=O)Nc3cccc(C(=O)c4ccccc4)c3)c2)CC1 : 48
2) Cc1nc(-c2cccc3c(NC(=O)N4CCc5cc6nccc(N7CCN(C)CC7)c6cc54)cccc23)no1.Cl : 45
3) CS(=O)(=O)CCNCc1ccc(-c2ccc3c(Nc4ccc(Cl)cc4F)ccnc3c2)o1 : 6

Input Cc1cccc2nc(-c3ccc(-c4cccc(NC(=O)NCc5cccc(F)c5)c4)cc3)[nH]c12 . Output Inhibition: 27

Input c1cncc(Oc2ccc(Nc3ccnc4cc(-c5cccc(CN6CCOCC6)c5)ccc34)cc2)c1 . Output Inhibition: 14

Input C[C@H](NC(=O)c1cc(-c2ccc(C(C)(C)C)cc2)no1)C(=O)O.C[C@H](NC(=O)c1conc1-c1ccc(C(C)(C)C)cc1)C(=O)O . Output Inhibition: 31

Input CCOc1ccc2[nH]c(C)cc(=NN=Cc3cccnc3)c2c1 . Output Inhibition: 18

Input Cl.O=C(C=Cc1ccc(F)cc1)NC1CCC(CCN2CCc3ccc(-c4cnccn4)cc3CC2)CC1 (stereo not drawn) . Output Inhibition: 32

###

Each entry below lists one item and its recorded Inhibition value.
system: Plasmodium falciparum; test: GSK_TCMDC: Inhibition of Plasmodium falciparum 3D7 in whole red blood cells, using parasite LDH activity as an index of growth. Test compounds present at 2uM; type: functional
API: value field is a number in %; no unit string.

Some solved cases for reference:
1. CN/C(=C\[N+](=O)[O-])NCCSCc1cc(C)c(CN(C)C)s1 : 98
2. Cc1cc(NC(=O)c2coc3cc(F)c(N4CC(C)N(C)C(C)C4)cc23)ccc1-n1ccnc1.Cl (centres undefined) : 96
3. CN1CCN(CCCN(Cc2ccc(-c3ccc(CNC4CCCC4)cc3)cc2)C(=O)CCC2CCCC2)CC1.O=C(O)C(F)(F)F : 98
4. O=C(O)C(F)(F)F.Oc1ccc(CN2CCC(NCc3cccc4ccccc34)CC2)cc1 : 97
5. COc1ccc(CNCc2ccc(F)cc2)cc1-c1ccc(S(=O)(=O)NCCN2CCCC2)c(C)c1.O=C(O)C(F)(F)F : 98
6. O=C(NC1CCN(Cc2ccccc2)CC1)c1cc(-c2ccncc2)nc2ccc(Cl)cc12 : 97
7. Cc1cc(Nc2ccc3ccccc3c2)n2ncnc2n1 : 96
8. COc1ccc(C=NNc2ccnc3cc(F)c(C)cc23)c2ccccc12 : 100
9. COc1ccccc1-c1cc(C(=O)N2CCN(S(=O)(=O)c3ccc(C)cc3)CC2)[nH]n1 : 88
10. Cc1cnc(CNCc2ccc(S(=O)(=O)Nc3ccc(Oc4cccc(Cl)c4)cc3)cc2)cn1.O=C(O)C(F)(F)F : 97

Input COc1ccc(C=Cc2cc(=N)c3ccccc3[nH]2)cc1Br . Output Inhibition: 100

Input Nc1c2c(nc3ccccc13)C(=Cc1ccc(O)cc1)CCC2 . Output Inhibition: 99

###

Each entry below lists one item and its recorded Inhibition value.
tested on: Plasmodium falciparum; assay: GSK_TCMDC: Inhibition of Plasmodium falciparum 3D7 in whole red blood cells, using parasite LDH activity as an index of growth. Test compounds present at 2uM; assay type: functional
API: value field is a number in %; no unit string.

Some solved cases for reference:
1) COc1ccc(Cc2c(Cl)nc3nc(N)nc(N)c3c2C)cc1 : 94
2) CC(C)(C)CCN1CCC(CNC(=O)c2cc(-c3cccc(Cl)c3)cs2)C1.O=C(O)C(F)(F)F (centres undefined) : 99
3) O=C(Cc1cccnc1)N(Cc1ccc(-c2ccc(CNCc3cccnc3)cn2)cc1)C1CCN(Cc2ccccc2)CC1.O=C(O)C(F)(F)F : 93

Input Cc1sc2ccc(Cl)cc2c1S(=O)(=O)Nc1ccc2nccc(N3CC(C)NC(C)C3)c2c1.Cl (centres undefined) . Output Inhibition: 100

Input COc1ccc(C(F)(F)F)cc1N1CCN(CCCCNC(=O)c2ccc(NC(=O)c3ccc(Cl)cc3)cc2)CC1 . Output Inhibition: 94

###

Each entry below lists one item and its recorded Inhibition value.
system: Plasmodium falciparum; assay: GSK_TCMDC: Inhibition of Plasmodium falciparum 3D7 in whole red blood cells, using parasite LDH activity as an index of growth. Test compounds present at 2uM; type: functional
Include the unit after the number when you answer.

Some solved cases for reference:
1) Cc1ccc(-n2cc(CNCC3CCN(CCO)CC3)c(-c3ccc(F)cc3)n2)cc1 : 91%
2) COc1ccc(Cl)cc1N1CCN(CCCNC(=O)c2ccc(-c3nc4ccc(C(F)(F)F)cc4[nH]3)c(C)c2)CC1 : 95%
3) Cc1cc(-c2ccc(NC(=O)N3CCc4cc(Br)c(N5CCN(C)CC5)cc43)cc2)cc(C)n1 : 92%
4) Cc1cc(NCc2ccc(F)cc2)nc2cc(O)ccc12 : 98%

// switching to the query compound
Input CC(C)[C@H](NC(=O)c1ccc(O)c(-c2cccc(C(F)(F)F)c2)c1)C(=O)NCCN1CCCCC1 . Output Inhibition: 99%

###

tested on: Plasmodium falciparum; test: GSK_TCMDC: Inhibition of Plasmodium falciparum Dd2 in whole red blood cells, using parasite LDH activity as an index of growth. Test compounds present at 2uM; format: functional
Parameter measured: Inhibition

Some solved cases for reference:
1. CC(CN(C)C)C(=O)Nc1cccc(-c2ccc(-c3nc4ccccc4[nH]3)cc2)c1 (configuration not stated) : 25%
2. c1ccc(Oc2ccc(Nc3ccnc4cc(-c5ccc(CNCCN6CCOCC6)o5)ccc34)cc2)nc1 : 100%
3. Br.CCCc1cccc(OC)c1OCCCON1C(N)=NC(N)=NC1(C)C : 97%
4. COc1ccc(Nc2ncc3c(-c4cccc(NC(=O)c5ccccc5)c4)c[nH]c3n2)cc1OC : 95%
5. Cl.O=C(NCc1ccc(C(=O)N2CCC(N3CCCCC3)CC2)cc1)c1cc(-c2cccc(C(F)(F)F)c2)ccc1O : 58%

Log: Plasmodium falciparum, molecule O=C(Nc1ccc(C(=O)N2CCN(CCN3CCN(c4cccc(C(F)(F)F)c4)CC3)CC2)cc1)c1cc(Cl)cc(Cl)c1 , Inhibition = 19%

Log: Plasmodium falciparum, molecule O=C(NCc1ccccc1)NC1CCN(c2ccnc3cc(Cl)ccc23)C1.O=C(O)C(F)(F)F (configuration not stated) , Inhibition = 99%

Log: Plasmodium falciparum, molecule CCN(CC)CCOc1ccc(C(O)(C#CC(O)(c2ccc(Br)cc2)c2ccc(OCCN(CC)CC)cc2)c2ccc(Br)cc2)cc1 (configuration not stated) , Inhibition = 99%

Log: Plasmodium falciparum, molecule CCOC(=O)CCCCCNC[C@H](O)c1ccccc1.Cl , Inhibition = 0%

Log: Plasmodium falciparum, molecule Cl.Clc1ccc(OCCC2CCN(CCCCCCCN3CCC(CCOc4ccc(Cl)c(Cl)c4)CC3)CC2)cc1Cl , Inhibition = 82%

Log: Plasmodium falciparum, molecule CCNC(=O)c1cc(S(=O)(=O)N2CCN(c3ccccn3)CC2)cs1 , Inhibition = 94%

Log: Plasmodium falciparum, molecule COc1cc(Nc2ccnc3cc(-c4ccncc4)ccc23)cc(OC)c1OC.Cl , Inhibition = 39%

Log: Plasmodium falciparum, molecule COc1cc(NC(=O)c2ccc3c(=O)n(Cc4ccccc4)c(=S)[nH]c3c2)cc(OC)c1OC , Inhibition = 47%

Log: Plasmodium falciparum, molecule Cc1cc(NC(=O)Nc2ccc(C(C)C)cc2)c2ccccc2n1.Cl , Inhibition = 16%

Log: Plasmodium falciparum, molecule NCCNS(=O)(=O)c1ccc(-c2ccnc3[nH]c(-c4ccncc4)cc23)cc1.O=C(O)C(F)(F)F , Inhibition = 95%

###

Each entry below lists one item and its recorded Inhibition value.
system: Plasmodium falciparum; test: GSK_TCMDC: Inhibition of Plasmodium falciparum Dd2 in whole red blood cells, using parasite LDH activity as an index of growth. Test compounds present at 2uM; format: functional
API: value field is a number in %; no unit string.

Some solved cases for reference:
1) CN(C)c1ccc(CN2CCC(CNC(=O)c3cc(-c4cccc(F)c4)cs3)C2)cc1.O=C(O)C(F)(F)F (centres undefined) : 13
2) CCOc1ccccc1CCNC(C)Cc1ccc(C(=O)Nc2ccc(CC(C)NCCc3cccc(Cl)c3)cc2)cc1 (centres undefined) : 59
3) O=C(/C=C/c1ccc(Cl)c(Cl)c1)NCCCCCN1CCCN(C(=O)Nc2cccc(C(F)(F)F)c2)CC1 : 0

Input CC(=O)c1ccc(Nc2c(C(N)=O)cnc3cc(-c4c(C)noc4C)ccc23)cc1 . Output Inhibition: 44

Input CN(C)S(=O)(=O)c1ccc(C(=O)N(c2nc(-c3ccccc3)cs2)C2CCCCC2)cc1 . Output Inhibition: 46

Input CCNc1cc(C)nc(Nc2ccc(NC(=O)c3cccs3)cc2)n1 . Output Inhibition: 50

Input Cc1c(CNCCCNc2cc(=O)c3ccccc3[nH]2)sc(C(F)=C(F)F)c1Br.Cl . Output Inhibition: 18

Input CCC[C@@H]([C@@H](CC1CCC(C)CC1)C(=O)N[C@@H](CO)C(=O)Nc1nccs1)N(O)C=O (some centres undefined) . Output Inhibition: 84

Input N#Cc1ccc(CN2CCC(Oc3ccc(NC(=O)c4ccco4)cc3Cl)C2)cc1.O=C(O)C(F)(F)F (centres undefined) . Output Inhibition: 95
